Reported values of Average Inhibition activity for individual entries
Biological target: SpCas9 (Streptococcus pyogenes serotype M1, UniProt Q99ZW2)
Sequence (Q99ZW2 whole entry): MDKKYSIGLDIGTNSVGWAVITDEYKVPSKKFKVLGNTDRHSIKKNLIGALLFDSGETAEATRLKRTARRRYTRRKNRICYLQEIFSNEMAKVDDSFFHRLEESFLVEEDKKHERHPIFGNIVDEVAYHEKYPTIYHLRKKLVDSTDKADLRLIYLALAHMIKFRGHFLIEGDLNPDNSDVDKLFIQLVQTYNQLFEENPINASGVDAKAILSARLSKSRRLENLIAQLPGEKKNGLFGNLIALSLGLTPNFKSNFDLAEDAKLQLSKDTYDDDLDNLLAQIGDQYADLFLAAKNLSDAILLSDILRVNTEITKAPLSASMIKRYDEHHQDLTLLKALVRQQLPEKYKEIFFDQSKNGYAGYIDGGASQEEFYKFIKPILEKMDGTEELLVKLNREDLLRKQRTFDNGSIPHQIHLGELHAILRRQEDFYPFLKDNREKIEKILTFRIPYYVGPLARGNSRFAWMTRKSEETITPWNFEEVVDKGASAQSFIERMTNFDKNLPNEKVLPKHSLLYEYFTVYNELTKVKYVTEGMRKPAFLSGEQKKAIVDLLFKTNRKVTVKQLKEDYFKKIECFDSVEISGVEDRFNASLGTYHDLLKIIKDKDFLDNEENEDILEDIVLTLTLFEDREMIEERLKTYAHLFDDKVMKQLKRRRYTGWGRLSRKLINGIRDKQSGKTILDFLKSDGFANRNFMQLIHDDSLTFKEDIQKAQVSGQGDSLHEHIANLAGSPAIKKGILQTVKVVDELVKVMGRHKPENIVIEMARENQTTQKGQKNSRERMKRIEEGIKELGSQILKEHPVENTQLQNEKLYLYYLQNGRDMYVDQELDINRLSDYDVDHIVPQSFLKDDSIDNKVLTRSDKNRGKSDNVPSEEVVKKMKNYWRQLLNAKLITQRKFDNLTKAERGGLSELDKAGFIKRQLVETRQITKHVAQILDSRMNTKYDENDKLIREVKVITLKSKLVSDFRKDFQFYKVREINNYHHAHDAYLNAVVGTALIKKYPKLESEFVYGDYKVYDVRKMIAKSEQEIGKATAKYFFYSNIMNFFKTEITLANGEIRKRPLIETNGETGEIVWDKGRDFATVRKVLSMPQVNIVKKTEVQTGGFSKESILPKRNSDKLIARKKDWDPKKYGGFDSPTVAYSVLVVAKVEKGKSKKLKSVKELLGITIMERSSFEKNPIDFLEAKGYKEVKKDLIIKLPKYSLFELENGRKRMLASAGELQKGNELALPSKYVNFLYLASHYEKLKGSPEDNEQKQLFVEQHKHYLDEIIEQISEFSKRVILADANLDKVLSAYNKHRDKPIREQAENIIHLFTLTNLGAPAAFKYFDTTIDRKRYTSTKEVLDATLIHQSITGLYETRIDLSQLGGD
Assay: eGFP-disruption assay in U2OS.eGFP.PEST cells
Type: cell-based, S. pyogenes
Design: host or cells: U2OS.eGFP.PEST
Conditions: screen of structural analogs of BRD7087; 15 μM compound, 24 h, U2OS.eGFP.PEST cells
Reply briefly: the number, and no unit.

O=S(=O)(c1cccc(F)c1)N1CC[C@@H]2[C@H](CO)Nc3ccc(C#Cc4ccccc4F)cc3[C@@H]21 : 60.8

Give its Average Inhibition activity value. Item: "CN1c2ccc(C#Cc3cccnc3)cc2[C@H]2[C@H](CCN2C(=O)C2CCCCC2)[C@@H]1CO"
82.0

What would you report for "CN1c2ccc(-c3ccccc3F)cc2[C@H]2[C@H](CCN2C(=O)NC2CCCCC2)[C@H]1CO" ?
49.1

Please answer likewise for "CN1c2ccc(C#Cc3cccnc3)cc2[C@H]2[C@H](CCN2C(=O)C2CCCCC2)[C@H]1CO"
54.5

Ok, now "OC[C@@H]1Nc2ccc(-c3ccccc3)cc2[C@@H]2[C@H]1CCN2Cc1ccc(F)cc1"
49.3

Input "O=C(C1CC1)N1CC[C@@H]2[C@H](CO)Nc3ccc(Br)cc3[C@@H]21"
48.0

For "C/C=C/c1ccc2c(c1)[C@H]1[C@H](CCN1C(=O)c1ccc(F)cc1)[C@H](CO)N2" then?
74.3

Try this compound next: "O=C(c1cccc(F)c1)N1CC[C@@H]2[C@H](CO)Nc3ccc(-c4ccccc4)cc3[C@@H]21"
57.0

Then "CN1c2ccc(-c3cccc(C#N)c3)cc2[C@H]2[C@H](CCN2C(=O)C2CCCCC2)[C@H]1CO" ?
52.7
